Sourced from patent US20250213575A1

# Target Desc: UniProt P0A0I7
# Measurement Protocol: cell-based
# Set-up: species or system S. aureus USA300 strain UAMS-1625
# Conditions: IC50 at 40 mg/mL HSA, LB medium supplemented with 40 mg/mL human serum albumin
IC50 reference

# Compound Smiles, IC50
records = [
    ("Cc1ccc(S(=O)(=O)c2nnn3c2[nH]c(=O)c2ccc(N4CC5(CN(C)C5)C4)cc23)c(C)c1", "21.5 to 108 µM"),
    ("Cc1ccc(S(=O)(=O)c2nnn3c2[nH]c(=O)c2ccc(N4CC5(COC5)C4)cc23)c(C)c1", "22.1 to 111 µM"),
    ("Cc1ccc(S(=O)(=O)c2n[nH]n3c2nc(=O)c2ccc(N4CCN(C5CCN(C)CC5)CC4)cc23)c(C)c1", "18.7 to 93.3 µM"),
    ("Cc1ccc(S(=O)(=O)c2nnn3c2[nH]c(=O)c2ccc(N4CC5CCC(C4)N5)cc23)c(C)c1", "< 21.5 µM"),
    ("Cc1ccc(S(=O)(=O)c2nnn3c2[nH]c(=O)c2ccc(N4C[C@@H](C)N[C@@H](C)C4)cc23)c(C)c1", "21.4 to 107 µM"),
]

Switching to the query record.
Task item: Give me measured IC50, please, for this molecule: "CCN(CC)CCC(=O)N1CCN(c2ccc3c(=O)[nH]c4c(S(=O)(=O)c5ccc(C)cc5C)nnn4c3c2)CC1"
Reply: 17.7 to 88.4 µM

###

# Target Desc: AgrA (Staphylococcus aureus)
# Sequence (P0A0I7 whole entry): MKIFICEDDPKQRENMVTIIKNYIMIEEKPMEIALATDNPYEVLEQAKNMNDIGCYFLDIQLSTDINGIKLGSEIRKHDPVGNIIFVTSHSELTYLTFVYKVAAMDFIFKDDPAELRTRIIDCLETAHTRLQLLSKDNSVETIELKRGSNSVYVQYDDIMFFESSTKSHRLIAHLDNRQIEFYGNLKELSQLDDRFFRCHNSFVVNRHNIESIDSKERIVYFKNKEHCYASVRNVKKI
# Measurement Protocol: cell-based
# Set-up: species or system S. aureus USA300 strain UAMS-1625
# Conditions: IC50 without HSA, LB medium, without HSA
Measured Parameter: IC50

# Compound, IC50
rows = [
    ("Cc1ccc(S(=O)(=O)c2nnn3c2[nH]c(=O)c2ccc(N4CCC5C(CCN5C)C4)cc23)c(C)c1 (stereo not shown)", "< 2030 nM"),
]

Task item: Give me measured IC50, please, for this compound: Cc1ccc(S(=O)(=O)c2nnn3c2[nH]c(=O)c2cc(O)ccc23)c(C)c1 [46 (WO 2020/109350), reference compound]
Reply: < 2700 nM

Task item: Give me measured IC50, please, for this compound: Cc1ccc(S(=O)(=O)c2nnn3c2[nH]c(=O)c2ccc(N4C[C@H](C)NC[C@H]4C)cc23)c(C)c1 (racemic)
Reply: < 2140 nM

Task item: Give me measured IC50, please, for this compound: "Cc1ccc(S(=O)(=O)c2nnn3c2[nH]c(=O)c2ccc(N4CCCNCC4)cc23)c(C)c1"
Reply: < 2210 nM

Task item: Give me measured IC50, please, for this compound: "Cc1ccc(S(=O)(=O)c2nnn3c2[nH]c(=O)c2ccc(N4CCN(CCOCCO)CC4)cc23)c(C)c1"
Reply: < 1900 nM

Task item: Give me measured IC50, please, for this compound: "Cc1ccc(S(=O)(=O)c2nnn3c2[nH]c(=O)c2ccc(N4CCn5ccnc5C4)cc23)c(C)c1"
Reply: 2100 to 10500 nM

Task item: Give me measured IC50, please, for this compound: Cc1ccc(S(=O)(=O)c2nnn3c2[nH]c(=O)c2ccc(N4CCC5(CNCCO5)C4)cc23)c(C)c1 (stereo not shown)
Reply: < 2020 nM

###

# Target Desc: UniProtKB P0A0I7
# Measurement Protocol: cell-based
# Design: species or system S. aureus USA300 strain UAMS-1625
# Conditions: 40 mg/mL HSA vs without HSA
Measured Parameter: Ratio IC50 (in presence of HSA)/IC50 (in absence of HSA)

Below: 4 compounds and their reported Ratio IC50 (in presence of HSA)/IC50 (in absence of HSA).
# Compound, Test Value
measured = [
    ("Cc1ccc(S(=O)(=O)c2nnn3c2[nH]c(=O)c2ccc(N4CCN(C(C)CO)CC4)cc23)c(C)c1 (stereo not drawn)", "++ (ratio ≤ 125)"),
    ("CNC1CCN(c2ccc3c(=O)[nH]c4c(S(=O)(=O)c5ccc(C)cc5C)nnn4c3c2)C1 (stereo not drawn)", "++ (ratio ≤ 125)"),
    ("Cc1ccc(S(=O)(=O)c2nnn3c2[nH]c(=O)c2ccc(N4CCC(C(=O)O)CC4)cc23)c(C)c1", "+++ (ratio ≤ 25)"),
    ("Cc1ccc(S(=O)(=O)c2nnn3c2[nH]c(=O)c2ccc(N4CCC5(CNCCO5)C4)cc23)c(C)c1 (stereo not drawn)", "+++ (ratio ≤ 25)"),
]

Switching to the query record.
Task item: Give me measured Ratio IC50 (in presence of HSA)/IC50 (in absence of HSA), please, for this compound: "Cc1ccc(S(=O)(=O)c2n[nH]n3c2nc(=O)c2ccc(N4CCN(C5CCOCC5)CC4)cc23)c(C)c1"
Reply: +++ (ratio ≤ 25)
